B1: OR4K15 (parent)
chain: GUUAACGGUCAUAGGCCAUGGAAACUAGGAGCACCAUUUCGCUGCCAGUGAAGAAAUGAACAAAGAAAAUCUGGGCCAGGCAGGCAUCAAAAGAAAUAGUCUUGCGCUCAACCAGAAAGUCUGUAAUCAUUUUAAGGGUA

- Variants of: B1
- testName: self-cleavage, relative activity (ratio to wild type); higher = more cleavage; in vitro, sequencing; the parent is a self-cleaving ribozyme
propertyMeasured: self-cleavage
Reply with just the number.

Below, each entry is followed by its recorded self-cleavage result.
A98G G138U ... 0.6
C16G A78G ... 0.55
A33U A51U ... 0.89
U124C U131C ... 0.8
G58A U102C ... 2.39

Record C45U G119A . Reported self-cleavage: 1.99

Record A117U U131C . Reported self-cleavage: 1.01

Record A52U A59G . Reported self-cleavage: 1.48

Record A27U A68G . Reported self-cleavage: 1.61

Record U49C A59U . Reported self-cleavage: 1.24

Record A86G U131C . Reported self-cleavage: 1.23

Record A51U A67U . Reported self-cleavage: 2.12

Record A82G U122A . Reported self-cleavage: 0.11

Record A18G A68U . Reported self-cleavage: 1.33

From: the RNAGym collection of RNA variant scans (doi:10.7554/elife.90254)
